- ASSAY OVERVIEW: yeast display, Sf9 membrane polyspecificity reagent, FACS + sequencing; frameworks hold sequencing errors
METRIC NAME: polyreactivity (PSR sort gate)

* QVQLVESGGGLVQAGGSLRLSCAASGSIFARYAMGWYRQAPGKERELVAAISSDGSTYYADSVKGRFTISRDNEKNTVYLQMNSLKPEDTAVYYCNTQFRYPQKYDYWGQGTQVTVSS | high polyreactivity
* QVQLVESGGGLVQAGGSLRLSCAASGSIFDKNAMGWYRQAPGKERELVAAISRSGGRTYYADSVKGRFTISRDNAKNTVYLQMNSLKPEDTAVYYCNAVYYYRPYWRQSTLSQYGYWGQGTQVTVSS | high polyreactivity
* QVQLVESGGGLVQAGGSLRLTCAASGSTFSYYAMGCYRQAPGKERELVAAISTRGSSTYYADSVKGRFTISRDNAKITVYVQMNSLKPEDTAVYYFAVDQYKYDCFYDYYGYTYGYWGQGTQVTVSS | high polyreactivity
